Test system: CAKI-1 renal
test method notes: NCI tumour cell line growth inhibition, 48 h; in the data active = GI50 below about 0.43 µM; inactive = the rest
Thanks in advance; please answer with one of these: true for active, false for inactive

INSERT INTO measurements (compound, cat) VALUES
  ('COc1ccc(NC2=C(I)C(=O)c3ncccc3C2=O)cc1', 'false'),
  ('COc1cc(N2C(=O)[C@H](c3ccccc3)C2c2ccc(SC)cc2)cc(OC)c1OC (some centres undefined)', 'true'),
  ('C=C1C(=O)O[C@H]2[C@H](OC(C)=O)[C@@H](C)CCCC3(C)OC3CCC3(CO3)[C@H](O)C[C@@H]12 (some centres undefined)', 'false');

API: the following record is the query input.
Prompt: Called result for O=[N+]([O-])c1ccc(C(Cl)C(Cl)c2ccc(C(Cl)C(Cl)c3ccc([N+](=O)[O-])cc3[N+](=O)[O-])cc2)c([N+](=O)[O-])c1 (centres undefined)
Response: true
